experimental target: T1, recombinant protein His-fib-hTL1A (human)
T1 construct: expressed in HEK293 cells; also called human TL1A
T1 chain: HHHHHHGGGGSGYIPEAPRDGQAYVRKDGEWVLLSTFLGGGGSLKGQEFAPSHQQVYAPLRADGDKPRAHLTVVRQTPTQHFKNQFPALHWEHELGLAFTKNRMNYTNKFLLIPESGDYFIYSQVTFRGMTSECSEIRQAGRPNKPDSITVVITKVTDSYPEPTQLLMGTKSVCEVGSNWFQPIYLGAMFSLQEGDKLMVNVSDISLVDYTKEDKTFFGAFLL
experimental protocol: SPR, Biacore T200; antibody captured by anti-human IgG (Fc), TL1A as analyte; 1:1 model
endpoint label: Kd (nM)
Report only the number, with the unit nM understood.

Value of Kd reported for the binder mouse anti-TL1A monoclonal antibody S7B11 (antibody, V domains shown) VH: QVKLQQSGGELVRPGTSVKISCKASGYAFTNYWLGWIKQRPGHGLEWIGDIHPGRGNIYYNEKFKGKATLTADKSSSTAYMQLSSLTSEDSAVYFCAEGYDTFDYWGQGTTLTVSS VL: DIVMTQSPSYLAASPGETITINCRASKSISKYLAWYQEKPGKTNKLLIYSGSTLQSGIPSRFSGSGSGTDFTLTISSLEPEDFAMYYCQQHNEYPYTFGGGTKLEIKR is 0.234

Value of Kd reported for the binder mouse anti-TL1A monoclonal antibody S4D3 (antibody, V domains shown) VH: QVQLKESGSDLATPGASVKLSCKVSGYTFTKYDINWVRQRPEQGLEWIGWIFPGDGRTDYNEKFKGKATLTIDTSSSTAYMQLSRLTSEDSAVYFCARYGYALDYWGQGTSVTVSS VL: DVVMTQTPLSLPVSLGDQASISCRSSQNIVHSNGDTYLEWFLQKPGQSPKLLIYKVSNRFSGVPDRFSGSGSGTDFTLKISRVEAEDLGVYYCFQGSHFPYTFGGGTKLEMKR is 0.247

Value of Kd reported for the binder anti-TL1A monoclonal antibody PRA023 (antibody, V domains shown) VH: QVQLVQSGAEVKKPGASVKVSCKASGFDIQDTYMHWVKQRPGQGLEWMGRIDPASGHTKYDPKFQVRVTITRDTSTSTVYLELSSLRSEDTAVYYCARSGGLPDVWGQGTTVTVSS VL: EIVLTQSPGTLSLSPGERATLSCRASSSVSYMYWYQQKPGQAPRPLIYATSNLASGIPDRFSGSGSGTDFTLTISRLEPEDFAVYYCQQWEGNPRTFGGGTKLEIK is 0.355

Value of Kd reported for the binder mouse anti-TL1A monoclonal antibody S9H9 (antibody, V domains shown) VH: QVQLKQSGAELVRPGTSVKISCKASGYAFTNYWLGWIKQRPGHGLEWIGDIHPGRGNIFYNEKFKGKATLTADKSSSTAYMQLSSLTSEDSAVYFCAEGYDTFDYWGQGTTLTVSA VL: DIVMTQSHKFMSTSVGDRVSITCKASQDVSTAVAWYQQKPGQSPKLLIYSASYRYTGVPDRFTGSGSGTDFTFTISSVQAEDLAVYYCQQHYSTPWTFGGGTKLEMKR is 0.0374

Value of Kd reported for the binder anti-TL1A monoclonal antibody RVT-3101 (antibody, V domains shown) VH: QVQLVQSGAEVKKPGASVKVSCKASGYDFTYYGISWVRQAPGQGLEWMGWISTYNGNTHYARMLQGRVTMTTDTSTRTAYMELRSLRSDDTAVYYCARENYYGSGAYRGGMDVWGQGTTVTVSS VL: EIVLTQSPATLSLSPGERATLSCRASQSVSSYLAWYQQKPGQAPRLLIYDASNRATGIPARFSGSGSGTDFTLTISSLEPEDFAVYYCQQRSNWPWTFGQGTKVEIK is 0.154

Recorded values, source patent EP4818205A1.
